These data points were gathered from the OligoGym collection.

target: SEMA3B; test: pooled miR-30 sensor sort-seq; sequence = guide strand; details: shRNA; note: reference of the scale not given here
Hi, to clarify the labels: 1 covers sensor-assay potency score (higher = more potent) from -0.7 upward, -1 covers anything below -0.7.

TAGATTTTGTCGTCGTCTGGGT 1
TACTTTAGTACAGTCGGCCTGC 1
AACTGGATGACATCGTCTGGGA -1
TACCTTGACAAACTTGGGCTCA 1
TCACACTCCAGAAAGGCGCTGC 1

Is sensor-assay potency score (higher = more potent) for ATGCTGTACACGCACACCGCAG at or above -0.7? -1

Is sensor-assay potency score (higher = more potent) for TTCAGGAACGTCGTCCACTTGT at or above -0.7? 1

###

biological target: HBD; assay: pooled miR-30 sensor sort-seq; sequence = guide strand; details: shRNA
Endpoint: sensor-assay potency score (higher = more potent)
// keep it numeric: no unit symbol after the value

Example entries begin here.
TAGACCACCAGTAATCTGCCCA -0.29
ATTCCTTGCCAAAGTTGCGGGC -0.495
AACAGCATCAGGAGAGGACAGA -1.5
TTCACTTTGCCCCACAGGGCAT -0.844
ACACACACCAGCACATTGCCCA -0.428

Next:
Bench note: what sensor-assay potency score (higher = more potent) did AATTCCTTGCCAAAGTTGCGGG show? -0.612

###

biological target: SLC2A14; experiment: pooled miR-30 sensor sort-seq; sequence = guide strand; conditions: shRNA
Endpoint: sensor-assay potency score (higher = more potent)
// keep it numeric: no unit symbol after the value

TTATGATCGTCTCAGGAGCATT -1.97
TTTATGATCGTCTCAGGAGCAT -0.333
TAAATAGTAAGCAGCAGAGGGG -1.17
TGATTCTTTAATAACAAAGAAA -1.69
TCAGCATTTCAACTGACTCAGC -0.914

Bench note: what sensor-assay potency score (higher = more potent) did TCCCAGATCTATCTGCACCGTG show? -0.88

Bench note: what sensor-assay potency score (higher = more potent) did TAGTGATTCTTTAATAACAAAG show? -1.67

Bench note: what sensor-assay potency score (higher = more potent) did ATAAATTCCTTTATGATCGTCT show? 0.823

###

biological target: FAM89B; assay: pooled miR-30 sensor sort-seq; sequence = guide strand; conditions: shRNA
Endpoint: sensor-assay potency score (higher = more potent)

TTGCGCAGCGCGGCCAGCGCTG -1.52
TGACAGGACGACGCGGGCCGGC -1.62
ATCGGGAGGCTCCTCGTCGTCA -1.39

Next:
# value lookup — system FAM89B, readout sensor-assay potency score (higher = more potent), item TTTGTAGTCCTGGATTGACTCG -1.36

###

Below is a list of entries, each paired with its recorded sensor-assay potency score (higher = more potent) value.
target: ATP8B3; experiment: pooled miR-30 sensor sort-seq; sequence = guide strand; conditions: shRNA
// keep it numeric: no unit symbol after the value

TAGAAGTTGTACTTGGCCGTGC 1.18
TAAATGACCAGTCCATAGCAGG -1.07
TAGTACATCTGCACGTCCCAGT 0.127
TTGGTCTTGTATTTCTTCCTTT -0.502
TTTTTGTGTCAAAACCAGCATA -0.74
TAATTTTTGTGTCAAAACCAGC -1.1
TTCTTTGACTGAGAAACCGAAG -1.15

Next:
# value lookup — system ATP8B3, readout sensor-assay potency score (higher = more potent), item TTGGTCAACAGCAACTTCTCAG -0.358

###

molecular target: RBMY1E; test: pooled miR-30 sensor sort-seq; sequence = guide strand; settings: shRNA
Below is a list of entries, each paired with its recorded sensor-assay potency score (higher = more potent) value.
// keep it numeric: no unit symbol after the value

TTGAGCTACCACATGCTTCACG -0.607
TTCCACCATAGGACATCCGAGG -1.61
TTTCTCGGGAACTTCGACGATT -0.472

# value lookup — system RBMY1E, readout sensor-assay potency score (higher = more potent), item AACTTGAGCTACCACATGCTTC -1.03

###

target: TMEM130; assay: pooled miR-30 sensor sort-seq; sequence = guide strand; conditions: shRNA
Endpoint: sensor-assay potency score (higher = more potent)
// keep it numeric: no unit symbol after the value

Example entries begin here.
TAGTTATGGATTTTTAACCCTT -0.844
TTGCCAGTAAGCACCAGCGGGG -1.3
TTCAAGGTCACGGTCATCTTTT -0.705
TAGAGAAACAAGGCGGTCTTGA 0.529
TTGTCCTTGGCCACCAGGCTGG -1.04
TTCTGCTTCACAGCCCTCGTGG -0.803

Next:
# value lookup — system TMEM130, readout sensor-assay potency score (higher = more potent), item TTTATTTAGCAACAATGGCAGT -0.968

###

target: GEMIN6; test: pooled miR-30 sensor sort-seq; sequence = guide strand; settings: shRNA
Hi, to clarify the labels: MET covers sensor-assay potency score (higher = more potent) from -0.2 upward, NOT MET covers anything below -0.2.

Worked examples, 5 sequences total:
TTCTCTCTTCCAGATCCTCTGG NOT MET
TTATACTCATTCTTCTCACTGG MET
ATAATCTCATTAGAGCTGCTGC NOT MET
TAAAATATAGTCTTTTTCTATC NOT MET
TTAGGCTGTTCTTTCTCTCTTC MET

Is sensor-assay potency score (higher = more potent) for TAATCTTGCCATTCTAAGGGGC at or above -0.2? MET

Is sensor-assay potency score (higher = more potent) for TTTGTAAATGTAATCTTGCCAT at or above -0.2? NOT MET

###

Below is a list of entries, each paired with its recorded sensor-assay potency score (higher = more potent) value.
target: TP53I13; test: pooled miR-30 sensor sort-seq; sequence = guide strand; details: shRNA
// keep it numeric: no unit symbol after the value

Bench note: what sensor-assay potency score (higher = more potent) did TGACTTGAACAGACACAGCCCC show? -0.111

Bench note: what sensor-assay potency score (higher = more potent) did TAGCCATACAAGCATAGGCCAG show? -1.71

Bench note: what sensor-assay potency score (higher = more potent) did TCGTGTGTAGGTCACTCTTGGT show? -1.06

Bench note: what sensor-assay potency score (higher = more potent) did TCGGAAGTTTCTGTGCAGCCGT show? -0.684

Bench note: what sensor-assay potency score (higher = more potent) did TTGGTGACACCTGCGGAGGCAG show? -1.23

Bench note: what sensor-assay potency score (higher = more potent) did TTGGCCTTCAAGCTCCCTGGGG show? -0.75

###

target: KRT33B; experiment: pooled miR-30 sensor sort-seq; sequence = guide strand; conditions: shRNA
Hi, to clarify the labels: 1 (yes) covers sensor-assay potency score (higher = more potent) from -1 upward, 0 (no) covers anything below -1.

Is sensor-assay potency score (higher = more potent) for TTCTCAGACTTGCTGCACAGGA at or above -1? 0 (no)

Is sensor-assay potency score (higher = more potent) for TTGTCAGAGAGGCAGAACTGGC at or above -1? 0 (no)

Is sensor-assay potency score (higher = more potent) for TTCTGAAGTCATCTGCAGCCAG at or above -1? 1 (yes)

Is sensor-assay potency score (higher = more potent) for TTTCCAGAGAGTATCGCAGGTT at or above -1? 1 (yes)

Is sensor-assay potency score (higher = more potent) for ATTGTCGATCTGCACCACCAGC at or above -1? 0 (no)

Is sensor-assay potency score (higher = more potent) for TTTTCACATGCATTGGTGGTGG at or above -1? 1 (yes)

Is sensor-assay potency score (higher = more potent) for ATACTGATTCCTGGTCTCGTTC at or above -1? 0 (no)

###

Below is a list of entries, each paired with its recorded sensor-assay potency score (higher = more potent) value.
biological target: FGF23; assay: pooled miR-30 sensor sort-seq; sequence = guide strand; conditions: shRNA
// keep it numeric: no unit symbol after the value

Bench note: what sensor-assay potency score (higher = more potent) did TCCATGCAGAGGTATCTTCTGC show? -1.48

Bench note: what sensor-assay potency score (higher = more potent) did TGGAACCTGCAGTTCTCCGGGT show? -0.566

Bench note: what sensor-assay potency score (higher = more potent) did TATCTTCTGCTCATCACACCTG show? 0.064

###

target: APOL1; test: pooled miR-30 sensor sort-seq; sequence = guide strand; conditions: shRNA
Hi, to clarify the labels: Met covers sensor-assay potency score (higher = more potent) from -0.9 upward, Not met covers anything below -0.9.

TTCATTAACCCTCTCCACCTGT Met

Is sensor-assay potency score (higher = more potent) for TTTGAGGATCTCCAGTATCTGT at or above -0.9? Not met

Is sensor-assay potency score (higher = more potent) for TATCGTGCCAGTTTTTGTCTTT at or above -0.9? Met

Is sensor-assay potency score (higher = more potent) for TATCCAACTGTTCTAACTCTTG at or above -0.9? Not met

Is sensor-assay potency score (higher = more potent) for TTGTCTTTCATGATCATTTGTC at or above -0.9? Met

Is sensor-assay potency score (higher = more potent) for TAACTCTTGGGCTTTCTCCATT at or above -0.9? Met
